The reported measurements were obtained from the supplement of paper PMC11908140.

Below: a set of entries, each annotated with reported 8OG:A repair function score.
B1: library; numbered along this chain (parent)
chain: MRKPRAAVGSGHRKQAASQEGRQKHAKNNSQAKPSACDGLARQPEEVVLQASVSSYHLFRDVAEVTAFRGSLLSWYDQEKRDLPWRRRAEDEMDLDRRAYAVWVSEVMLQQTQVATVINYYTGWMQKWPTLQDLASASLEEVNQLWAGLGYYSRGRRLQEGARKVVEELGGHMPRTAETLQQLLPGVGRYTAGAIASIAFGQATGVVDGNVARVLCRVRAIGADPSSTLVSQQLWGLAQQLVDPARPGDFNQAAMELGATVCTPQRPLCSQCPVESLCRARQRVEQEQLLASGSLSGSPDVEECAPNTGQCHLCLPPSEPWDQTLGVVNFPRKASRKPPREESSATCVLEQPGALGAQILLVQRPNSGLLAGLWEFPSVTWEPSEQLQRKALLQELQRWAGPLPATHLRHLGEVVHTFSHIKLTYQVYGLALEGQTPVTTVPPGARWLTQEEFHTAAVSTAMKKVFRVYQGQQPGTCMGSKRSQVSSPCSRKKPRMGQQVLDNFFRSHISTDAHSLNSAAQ

Variants of: B1
testProtocol: 8OG:A repair function score (normalized; synonymous = 0, nonsense = -1) (normalized log-likelihood score); higher = more repair activity (WT-like);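 note: cells sorted at 72 h after reporter transfection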
condition: with 8OG:A DNA repair reporter (GFP) in HEK-293 MUTYH KO cells
valueType: 8OG:A repair function score

{"change": "G248M", "valueType": "8OG:A repair function score", "valueObserved": -0.879}
{"change": "G356V", "valueType": "8OG:A repair function score", "valueObserved": -0.13}
{"change": "A405N", "valueType": "8OG:A repair function score", "valueObserved": -0.161}
{"change": "A238C", "valueType": "8OG:A repair function score", "valueObserved": -0.249}
{"change": "T324G", "valueType": "8OG:A repair function score", "valueObserved": -0.0488}
{"change": "Q111Y", "valueType": "8OG:A repair function score", "valueObserved": -1.17}
{"change": "L516D", "valueType": "8OG:A repair function score", "valueObserved": -0.0107}
{"change": "G412E", "valueType": "8OG:A repair function score", "valueObserved": -0.631}
{"change": "P267G", "valueType": "8OG:A repair function score", "valueObserved": -0.225}
{"change": "S344Q", "valueType": "8OG:A repair function score", "valueObserved": 0.019}
{"change": "T439W", "valueType": "8OG:A repair function score", "valueObserved": 0.0448}
{"change": "W124E", "valueType": "8OG:A repair function score", "valueObserved": -1.01}
{"change": "V142R", "valueType": "8OG:A repair function score", "valueObserved": -0.841}
{"change": "G39S", "valueType": "8OG:A repair function score", "valueObserved": 0.0658}
{"change": "L277S", "valueType": "8OG:A repair function score", "valueObserved": -0.022}
{"change": "G248Q", "valueType": "8OG:A repair function score", "valueObserved": -0.882}
{"change": "H508A", "valueType": "8OG:A repair function score", "valueObserved": -0.00475}
{"change": "E451L", "valueType": "8OG:A repair function score", "valueObserved": -0.179}
{"change": "W381S", "valueType": "8OG:A repair function score", "valueObserved": -0.174}
{"change": "T406S", "valueType": "8OG:A repair function score", "valueObserved": -0.184}
{"change": "S292L", "valueType": "8OG:A repair function score", "valueObserved": -0.0154}
{"change": "T116S", "valueType": "8OG:A repair function score", "valueObserved": -0.0572}
{"change": "R340I", "valueType": "8OG:A repair function score", "valueObserved": -0.119}
{"change": "N251P", "valueType": "8OG:A repair function score", "valueObserved": -1.02}
{"change": "D249N", "valueType": "8OG:A repair function score", "valueObserved": -0.673}
{"change": "H312P", "valueType": "8OG:A repair function score", "valueObserved": -0.0124}
{"change": "R163W", "valueType": "8OG:A repair function score", "valueObserved": -0.296}
{"change": "N307F", "valueType": "8OG:A repair function score", "valueObserved": -0.00176}
